Parameter: Dmax. Scope: all listed entries.
molecular target: CDK6 (Homo sapiens); construct: endogenous in cells; experiment: CDK6 degradation (DC50, Dmax); assay type: cell-based
Sequence (Q00534 whole entry): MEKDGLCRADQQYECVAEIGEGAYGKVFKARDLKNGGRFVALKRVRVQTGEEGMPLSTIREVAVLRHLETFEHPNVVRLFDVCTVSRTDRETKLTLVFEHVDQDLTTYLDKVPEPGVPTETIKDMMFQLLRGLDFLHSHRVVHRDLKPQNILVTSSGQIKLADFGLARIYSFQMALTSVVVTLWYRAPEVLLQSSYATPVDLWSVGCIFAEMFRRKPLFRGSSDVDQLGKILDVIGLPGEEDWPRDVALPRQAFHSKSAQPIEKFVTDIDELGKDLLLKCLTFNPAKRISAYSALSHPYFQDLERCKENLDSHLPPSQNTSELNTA

CC(=O)c1c(C)c2cnc(Nc3ccc(N4CCN(CCN(C)c5ccc6c(c5)CN(C5CCC(=O)NC5=O)C6=O)CC4)cn3)nc2n(C2CCCC2)c1=O (stereo not drawn)
> 60%
CC(=O)c1c(C)c2cnc(Nc3ccc(N4CCN(C5CN(c6cccc7c6C(=O)N(C6CCC(=O)NC6=O)C7=O)C5)CC4)cn3)nc2n(C2CCCC2)c1=O (stereo not drawn)
> 60%
CC(=O)c1c(C)c2cnc(Nc3ccc(N4CCN(CCN(C)c5cccc6c5C(=O)N(C5CCC(=O)NC5=O)C6=O)CC4)cn3)nc2n(C2CCCC2)c1=O (stereo not drawn)
> 60%
CC(=O)c1c(C)c2cnc(Nc3ccc(N4CCN(CCCNc5ccc6c(c5)C(=O)N(C5CCC(=O)NC5=O)C6=O)CC4)cn3)nc2n(C2CCCC2)c1=O (stereo not drawn)
> 80%
Cc1nc2c(F)cc(-c3nc(Nc4ccc(CN5CCN(C6CN(c7ccc(C(=O)NC8CCC(=O)NC8=O)cc7)C6)CC5)cn4)ncc3F)cc2n1C(C)C (stereo not drawn)
> 80%

With those in mind, consider the next compound.
Notebook: pull reported Dmax for CDK6 (Homo sapiens), entry Cc1nc2c(F)cc(-c3nc(Nc4ccc(CC5CCN(C(=O)C6CN(c7ccc8c(c7)C(=O)N(C7CCC(=O)NC7=O)C8=O)C6)CC5)cn4)ncc3F)cc2n1C(C)C (stereo not drawn)
> 60%
